experiment: qHTS assay for small molecule agonists of the p53 signaling pathway - cell viability (AID 651633); settings: p53RE-bla HCT-116 viability, ATP luminescence, 16 h; series mostly up to 83.3 µM;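 also: p53RE-bla HCT reporter cells with a stable beta-lactamase p53 reporter; nearly all actives have a fitted effect of over 30% in size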
Results filed as inconclusive are left out. Active and inactive are the calls of the source. Calls follow the shape of the full dose curve.
testReadout: outcome

Sample answers from the record:
>>> df
                                   compound  testreadout  reportedmeasurement
0  CN/C(=C\[N+](=O)[O-])NCCSCc1csc(CN(C)C)n1      outcome             inactive
1                         C=CCCCCCCCCC(=O)O      outcome             inactive
2  CC1(C)CC(N)CC(C)(CN)C1 (stereo not drawn)      outcome             inactive
3                                CCCCCCCC=O      outcome             inactive
4                               CCNC(=S)NCC      outcome             inactive
5  CC(C)CCCCCCCOC(=O)CCCCC(=O)OCCCCCCCC(C)C      outcome             inactive
6  CN(C)c1ccc(O)c2c1C[C@H]1C[C@H]3[C@H](N(C)C)C(=O)C(C(N)=O)=C(O)[C@@]3(O)C(=O)C1=C2O      outcome             inactive
7                        CC(=O)Oc1ccc(C)cc1      outcome             inactive

(Q) Tell me the measured outcome of O=C(O)c1cc2ccccc2cc1O , please.
(A) inactive

(Q) Tell me the measured outcome of C[C@]12CC[C@@H]3c4ccc(O)cc4CC[C@H]3[C@@H]1C[C@@H](O)[C@@H]2O , please.
(A) inactive

(Q) Tell me the measured outcome of CN(C)CCOC(=O)COc1ccc(Cl)cc1 , please.
(A) inactive

(Q) Tell me the measured outcome of CSc1ccc(Cl)cc1 , please.
(A) inactive

(Q) Tell me the measured outcome of O=C(O)c1ccc(S(=O)(=O)N(Cl)Cl)cc1 , please.
(A) inactive

(Q) Tell me the measured outcome of COc1ccc(C)cc1N , please.
(A) inactive

(Q) Tell me the measured outcome of CCCCOC(=O)c1ccc(N)cc1 , please.
(A) inactive

(Q) Tell me the measured outcome of N#Cc1ccccc1 , please.
(A) inactive

(Q) Tell me the measured outcome of Nc1nc(N)nc(-c2ccccc2)n1 , please.
(A) inactive

(Q) Tell me the measured outcome of CC(=O)c1ccc(O)cc1 , please.
(A) inactive

(Q) Tell me the measured outcome of CC(C)(C)c1cc(Cc2cc(C(C)(C)C)c(O)c(C(C)(C)C)c2)cc(C(C)(C)C)c1O , please.
(A) inactive

(Q) Tell me the measured outcome of CCO[Si](CCC#N)(OCC)OCC , please.
(A) inactive

* * *

Experiment: qHTS assay to identify small molecule agonists of the TGF-beta/Smad signaling pathway - cell viability counter screen (AID 1346829); also: top concentration of the series differs between compounds; nearly all actives have a fitted effect of over 45% in size
Details: SBE-bla HEK293T viability, CellTiter-Glo luminescence, 5 h; series mostly up to 76.8 µM
Excerpt: National Center for Advancing Translational Sciences [NCATS] NIH Chemical Genomics Center [NCGC] U.S. Environmental Protection Agency [EPA] National Institutes of Environmental Health Sciences [NIEHS] National Toxicology Program [NTP] U.S. Food and Drug Administration [FDA] Transforming growth factor beta (TGF-beta) superfamily consists of a large number of structurally related dimeric proteins that act as hormones or local mediators in regulating a wide range of biological functions. […]
Inconclusive results are not listed. Activity calls are given as the source filed them. The call rests on the fitted dose curve; in most records, active means well fitted cell-killing curve with a large enough effect in the repeat runs; inconclusive means weak or mixed curves, or effect the other way; inactive means flat fitted curve, though single readings scatter.
testReadout: outcome

Sample answers from the record:
>>> print(df.to_string())
                                   compound  testreadout  reportedmeasurement
0               CC(C)OC(=O)COc1ccc(Cl)cc1Cl      outcome             inactive
1                 Cc1ccc(S(=O)(=O)N=C=O)cc1      outcome             inactive
2                      CCOC(=O)n1ccn(C)c1=S      outcome             inactive
3                        CC(=O)Oc1ccc(C)cc1      outcome             inactive
4  CC(CCl)OP(=O)(OC(C)CCl)OC(C)CCl (stereo unspecified)      outcome             inactive
5                                OCc1ccccc1      outcome             inactive
6       CC(O)CC(C)(C)O (stereo unspecified)      outcome             inactive
7  CN/C(=C\[N+](=O)[O-])NCCSCc1csc(CN(C)C)n1      outcome             inactive
8                          COc1ccc(N)c(C)c1      outcome             inactive
9          CC(C)CC(C)O (stereo unspecified)      outcome             inactive

(Q) Tell me the measured outcome of CNC(=S)N(C)C , please.
(A) inactive

(Q) Tell me the measured outcome of O=[N+]([O-])c1ccc2nc[nH]c2c1 , please.
(A) inactive

(Q) Tell me the measured outcome of COc1ccc(OC)cc1 , please.
(A) inactive

(Q) Tell me the measured outcome of C=CC(C)CCCC(C)(C)O (stereo unspecified) , please.
(A) inactive

(Q) Tell me the measured outcome of CCCCCCCCCCCC(=O)OC , please.
(A) inactive

(Q) Tell me the measured outcome of Clc1ccccn1 , please.
(A) inactive

* * *

biological target: Progesterone receptor (Homo sapiens) (UniProt P06401); assay: qHTS assay to identify small molecule agonists of the progesterone receptor (PR) signaling pathway (AID 1346784); details: PR-UAS-bla HEK293T, beta-lactamase FRET ratio, 16 h; series mostly up to 92.4 µM; also: nearly all actives have a fitted effect of over 30% in size
Sequence (P06401 whole entry, looked up): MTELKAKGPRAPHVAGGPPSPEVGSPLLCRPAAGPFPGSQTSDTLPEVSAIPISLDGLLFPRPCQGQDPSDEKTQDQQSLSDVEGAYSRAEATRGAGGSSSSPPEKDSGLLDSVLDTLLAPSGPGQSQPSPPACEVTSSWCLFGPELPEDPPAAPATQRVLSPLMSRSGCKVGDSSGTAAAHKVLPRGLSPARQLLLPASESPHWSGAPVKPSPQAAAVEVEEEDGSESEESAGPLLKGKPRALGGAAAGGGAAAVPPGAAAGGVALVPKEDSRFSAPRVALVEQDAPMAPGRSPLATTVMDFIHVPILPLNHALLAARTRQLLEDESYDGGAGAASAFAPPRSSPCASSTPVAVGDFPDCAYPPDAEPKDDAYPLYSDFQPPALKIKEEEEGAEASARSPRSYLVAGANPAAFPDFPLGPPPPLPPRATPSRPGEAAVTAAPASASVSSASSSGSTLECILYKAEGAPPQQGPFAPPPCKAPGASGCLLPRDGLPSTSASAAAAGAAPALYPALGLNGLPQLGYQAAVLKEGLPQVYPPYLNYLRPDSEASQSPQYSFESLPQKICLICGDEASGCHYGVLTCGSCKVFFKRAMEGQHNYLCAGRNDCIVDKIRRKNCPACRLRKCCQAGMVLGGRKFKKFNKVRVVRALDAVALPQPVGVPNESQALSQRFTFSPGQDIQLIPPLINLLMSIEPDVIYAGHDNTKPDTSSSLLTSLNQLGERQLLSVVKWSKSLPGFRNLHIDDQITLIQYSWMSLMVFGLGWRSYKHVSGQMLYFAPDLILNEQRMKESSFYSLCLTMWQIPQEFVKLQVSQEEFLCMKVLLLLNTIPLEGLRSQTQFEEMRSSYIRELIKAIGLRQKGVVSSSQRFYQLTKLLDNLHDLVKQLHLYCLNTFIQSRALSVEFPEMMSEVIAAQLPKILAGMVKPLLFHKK
Results filed as inconclusive are left out. Activity calls are given as the source filed them. Calls follow the shape of the full dose curve.
Assign a class; possible classes are yes = active, no = inactive

                                   compound  categorylabel
0                   Nc1nc(N)nc(-c2ccccc2)n1             no
1                           CC(=O)CC(C)(C)O             no
2  CC(C)CCCCCCCOC(=O)CCCCC(=O)OCCCCCCCC(C)C             no

(Q) Dear colleague, could you share the recorded outcome for CC(C)(C#N)c1cc(Cn2cncn2)cc(C(C)(C)C#N)c1 when you have a moment?
(A) no

(Q) Dear colleague, could you share the recorded outcome for CCCCCCCCCCCCCCCCO when you have a moment?
(A) no

(Q) Dear colleague, could you share the recorded outcome for O=c1[nH]cnc2[nH]ncc12 when you have a moment?
(A) no

(Q) Dear colleague, could you share the recorded outcome for Brc1ccc(Br)c(Br)c1 when you have a moment?
(A) no

(Q) Dear colleague, could you share the recorded outcome for O=S(=O)(O)c1ccc(N=Nc2c(O)ccc3cc(S(=O)(=O)O)ccc23)cc1 when you have a moment?
(A) no

(Q) Dear colleague, could you share the recorded outcome for CCO[Si](CCCN)(OCC)OCC when you have a moment?
(A) no

(Q) Dear colleague, could you share the recorded outcome for CC(C)OC(=O)COc1ccc(Cl)cc1Cl when you have a moment?
(A) no

(Q) Dear colleague, could you share the recorded outcome for O=C(O)c1ccccc1C(=O)O when you have a moment?
(A) no

(Q) Dear colleague, could you share the recorded outcome for NC(=S)NNC(N)=S when you have a moment?
(A) no

(Q) Dear colleague, could you share the recorded outcome for O=C1c2ccccc2CCc2ccccc21 when you have a moment?
(A) no

(Q) Dear colleague, could you share the recorded outcome for C=CC(C)CCCC(C)(C)O (centres undefined) when you have a moment?
(A) no

(Q) Dear colleague, could you share the recorded outcome for CCCCCCCCCCN when you have a moment?
(A) no

(Q) Dear colleague, could you share the recorded outcome for COc1ccc([N+](=O)[O-])cc1N when you have a moment?
(A) no

(Q) Dear colleague, could you share the recorded outcome for NCCN1CCNCC1 when you have a moment?
(A) no

* * *

target: Estrogen receptor (Homo sapiens) (UniProt P03372); assay: qHTS assay to identify small molecule agonists of the estrogen receptor alpha (ER-alpha) signaling pathway using the BG1 cell line (AID 743079); settings: BG1Luc4E2 cells, ERE-luciferase agonist, 22 h; series mostly up to 70.3 µM; also: nearly all actives have a fitted effect of over 20% in size
Sequence (P03372 whole entry, looked up): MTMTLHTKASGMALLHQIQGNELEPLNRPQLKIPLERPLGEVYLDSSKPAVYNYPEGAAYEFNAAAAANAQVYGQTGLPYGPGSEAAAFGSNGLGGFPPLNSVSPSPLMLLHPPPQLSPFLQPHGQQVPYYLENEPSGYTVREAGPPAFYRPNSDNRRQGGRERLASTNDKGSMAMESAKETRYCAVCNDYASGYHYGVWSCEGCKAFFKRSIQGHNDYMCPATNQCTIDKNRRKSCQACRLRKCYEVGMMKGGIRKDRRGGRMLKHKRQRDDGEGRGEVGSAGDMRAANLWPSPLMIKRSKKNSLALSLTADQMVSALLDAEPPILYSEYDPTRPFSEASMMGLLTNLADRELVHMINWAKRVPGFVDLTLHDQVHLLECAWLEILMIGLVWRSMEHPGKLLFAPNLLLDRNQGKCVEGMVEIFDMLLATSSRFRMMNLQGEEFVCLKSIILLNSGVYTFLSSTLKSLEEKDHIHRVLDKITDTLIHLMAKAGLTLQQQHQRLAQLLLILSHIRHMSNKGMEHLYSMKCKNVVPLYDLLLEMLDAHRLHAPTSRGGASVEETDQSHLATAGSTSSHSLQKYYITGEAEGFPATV
Inconclusive results are not listed. The source made the active and inactive calls. The call rests on the fitted dose curve; in most records, active means well fitted activation curve with a large enough effect in the repeat runs; inconclusive means weak or mixed curves, or effect the other way; inactive means no such curve, though single readings can be large or run the other way.
testReadout: outcome

>>> print(df.to_string())
                                 compound                               studytarget  reportedmeasurement
0                               CCCCCCC=O  Estrogen receptor (Homo sapiens) (UniProt P03372)             inactive
1                       CCCCCCCCCCCCCCCCO  Estrogen receptor (Homo sapiens) (UniProt P03372)             inactive
2                              CCOCC(=O)O  Estrogen receptor (Homo sapiens) (UniProt P03372)             inactive
3                                  COCCCN  Estrogen receptor (Homo sapiens) (UniProt P03372)             inactive
4  C=CC(C)CCCC(C)(C)O (centres undefined)  Estrogen receptor (Homo sapiens) (UniProt P03372)             inactive
5                     Cc1ccc(C(C)C)c(O)c1  Estrogen receptor (Homo sapiens) (UniProt P03372)             inactive
6                   O=c1[nH]cnc2[nH]ncc12  Estrogen receptor (Homo sapiens) (UniProt P03372)             inactive
7                              CCCCCCCC=O  Estrogen receptor (Homo sapiens) (UniProt P03372)             inactive

Let's switch to this compound now.
(Q) Tell me the measured outcome of CCCCCCCCCCO , please.
(A) inactive
